# assayed target: mumps hemagglutinin neuraminidase (HN) globular head domain, monomeric (Mumps virus genotype G (strain not …))
parameter measured: binding result

F10 (antibody, V domains shown) VH: EVQLQQSGAELVRPGSSVKLSCKASGYTFTWYWIDWLKQRPGQGLEWIGNIYPSDSAVQYNQNFKDRATLTLDTSSTTAYLHLSSLTSEDSAVYYCARRIYDYFALDFWGQGTSVTVSS VL: DIVMTQAAFSHPVTLGTSASISCRSSKSLQHSNGITFLYWYLQKPGQSPQLLIYQMSKLASGIPDRFSSSGSGTDFTLRISRVEAEDVGVYYCAQNLELPWTFGGGTKLEIK
binds
E7 (antibody, V domains shown) VH: EVKLVESGGGLVQPGGSLRLSCATSGFTFTDYYMSWVRQTPGKALEWLGFIRNKPNGYTTEYNASVKGRFTISRDNSRSVLYLQMNVLRAEDSATYFCARVPHDYGFFDYWGQGTTLTVSS VL: DVLMTQSPLSLPVSLGDQASISCRSSQSIEHINGHTYLEWYLQKPGQSPKVLIYKVSNRFSGVPDRFSGSGSGTDFTLRISRVEAEDLGVYYCFQASHLPYTFGGGTKLEIK
binds
D11 (antibody, V domains shown) VH: EVQLQQSGAELVRPGTSVKLSCKTSGYTFISYWIHWVKQRPGQGLEWIGVIDPSDSYTNYNQNFKGKVTLTVDTSSSTAYMQLSSLTSEDSAVYYCARFDYDDYWGQGTTLTVSS VL: QIVLTQSPAIMSASPGEKVTMTCSASSSVTYMQWYKQKSGTSPKRWIYDTSKLASGVPARFSGSGSGTSYSLTISSMEAEDAATYYCQQWNTNPWTFGGGTKLEIK
binds

Source of measurements: paper PMC11588112
